experiment description: Proxy for plastic degradation [UPLC/UHPLC]
reported conditions: pH 9; 50 °C
property measured: Proxy for plastic degradation

INSERT INTO measurements (protein, property_measured, observed) VALUES
  ('unnamed (protein) MALVTALALVTGVGTAPAFADEIGQAPTAANITGDGSFSTSSSAIFGQSGFGGGTAYYPNTAGKYPVVAFAPGFLSDWNALNWLGPRVASWGFVVVGVNTNTPFDFPDARGDQLLAALNWAVNSAPAAVRDKADGSRRGVSGWSMGGGGTLEALAKDTTGTVKAGVPLAPWHTNKTWSKVTEPVFIIGGQNDSVAAPASHAIPFYNSLGGPKSYLERAGADHFFPTKSNGTVSRAVVSFFKRHVSADTRFTPFLCGFSGLDVSNFRSNSC', 'Proxy for plastic degradation', '3600 µM'),
  ('unnamed (protein) MLSKRGILGALAGGAVAVGCLTAPAHAAGFEKGPDPTTASVTADRGSYDIAQVDVPKGSGTGFADGTIYYPKSTADGTFGAVAVIPGFLEPKSAIDWYGPRLASQGFVVMTLDTTSVFDTPDSRGGQLLAALDYLTSKSTVKDRIDPNRLAVVGHSMGGGGTLSAAANRPNLKAAVALAPWHVSAPLTSVKTPTMIFGSDNDFIAPDGTFAKPFYDGISNAPEKAYVRLKNAGHMAYVFPDKRIAEYTLSWLKRYVDDDTRYTQFLCPGPTNESTIAAYKSTCPM', 'Proxy for plastic degradation', '14.1 µM');

Kindly consider the entry below.
unnamed (protein) MKTNRRTLMLTGIAMTIGTAGRAAQATPEFKPQPGPLSIKSAAAISFRVEDQAKDLQIRVTYPDGPGPWPAIIFSHGAMSSKDFYNRVADHWATHGYATILPTHLDSESLGYSFKNPLPREKVFFGRIGDMQFILNHLDEIAGKAGIAGKIEKTKLAVAGHSFGGWTSLILAGLPVKMPDGSLKSFADSRIKALVSYNGIGPMDEIPDAAWAKVAIPVFAASGTNDPGATGSGPVHPWRWRIGAYDYAGSKEKYAVSITMGDHYYGGLICREGAGGKPDPEGLSFVNGSSTAFMDAYLKDDKSAKKFLRTADLRPLTNDRAFLERS yielded Proxy for plastic degradation of 17.3 µM
